# test-system: Amine oxidase [flavin-containing] A (Homo sapiens, UniProt P21397)
# Sequence (P21397 whole entry): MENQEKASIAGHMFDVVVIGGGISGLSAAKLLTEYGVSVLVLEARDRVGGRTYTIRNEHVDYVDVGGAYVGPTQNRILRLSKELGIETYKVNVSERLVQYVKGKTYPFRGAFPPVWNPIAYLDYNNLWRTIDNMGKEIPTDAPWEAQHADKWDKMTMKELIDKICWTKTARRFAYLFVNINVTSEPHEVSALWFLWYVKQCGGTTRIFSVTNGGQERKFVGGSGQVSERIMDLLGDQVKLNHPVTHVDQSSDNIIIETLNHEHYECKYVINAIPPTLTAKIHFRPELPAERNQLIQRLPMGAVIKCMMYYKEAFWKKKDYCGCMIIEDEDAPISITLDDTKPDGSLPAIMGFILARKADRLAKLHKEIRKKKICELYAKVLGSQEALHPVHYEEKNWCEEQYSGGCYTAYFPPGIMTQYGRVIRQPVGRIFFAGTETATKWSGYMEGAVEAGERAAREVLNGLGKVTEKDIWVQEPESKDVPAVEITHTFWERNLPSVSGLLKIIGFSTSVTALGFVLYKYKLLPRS
# procedure-summary: Inhibition of recombinant human MAO-A expressed in baculovirus infected BTI insect cells using p-tyramine as substrate incubated for 30 mins by Amplex red reagent based fluorescence analysis
Exercise: state measured Ki for each of the molecules provided.
Give bare numbers, in nM.

Illustrative cases are given below, each with its answer.
>>> value_reported("COc1ccccc1C1=NN(C(=O)Cn2c(=O)oc3ccccc32)C(c2ccccc2Cl)C1 (stereo not drawn)")
13
>>> value_reported("COc1ccc(C(/C=C/c2cccc(OC)c2OC)=N/NC(=O)Cn2c(=O)oc3ccc(Cl)cc32)cc1")
10

// next item, Ki requested
Missing value: Ki, Amine oxidase [flavin-containing] A (Homo sapiens, UniProt P21397), entry COc1cccc(C2=NN(C(=O)Cn3c(=O)oc4ccc(C)cc43)C(c3ccccc3Cl)C2)c1 (stereo not drawn) . Fill in?
11
